Here, compounds appear alongside pIC50 reported for Steroid 17-alpha-hydroxylase/17,20 lyase (Rattus norvegicus, UniProt P11715) in the literature.
pIC50: −log10 of the molar value.

CC(O)(c1ccncc1)c1nnc(-c2ccc(F)cc2)o1 (stereo not drawn) has a reported pIC50 of 6.70 to 7.30

Reported pIC50 of CCC(c1ccc(-c2ccccc2O)cn1)n1ccnc1 (stereo not drawn) : > 7.30

Field pIC50 (entry CCC(C(c1ccc2nc(N)sc2c1)n1ccnc1)N(C)CC (stereo not drawn) ) reads > 5.30

pIC50 reading for CC(O)(c1ccncc1)c1cnc(-c2ccc(Cl)c(C(F)(F)F)c2)s1 (stereo not drawn) : > 7.30

Summary for this compound, COc1cc2ccc(C(O)(c3cncs3)C(C)C)cc2cc1OC (stereo not drawn) : pIC50 is 6.54

get_value(item= CCC(c1ccc(-c2ccc(COCOC)cc2)cn1)n1ccnc1 (stereo not drawn) , readout=pIC50) returns 6.70 to 7.30

Notebook: CCC(c1cnc(-c2cn[nH]c2)s1)n1ccnc1 (stereo not drawn) , pIC50 read as > 7.30

Measured pIC50, Cn1cc(-c2ccc(C(C)(O)c3ccncc3)s2)ccc1=O (stereo not drawn) : > 7.30

pIC50 recorded for this compound, CC(O)(c1ccncc1)c1cnc(-c2ccc(F)c(C#N)c2)s1 (stereo not drawn) , is > 7.30

Notebook: CCc1cc(F)ccc1-c1ncc(C(CC)n2ccnc2)s1 (stereo not drawn) , pIC50 read as > 7.30

According to the records, this compound Cn1cc(-c2ncc(C(C)(O)c3ccncc3)o2)ccc1=O (stereo not drawn) displays pIC50 of 5.00 to 6.70

pIC50 measured on CC(O)(c1ccncc1)c1cnc(-c2ccc(C#N)c(C(F)(F)F)c2)s1 (stereo not drawn) = > 7.30

###

Across several publications, the following IC50 results were reported for Steroid 17-alpha-hydroxylase/17,20 lyase (Rattus norvegicus).

Param item: CCC(c1cnc(-c2cccc(F)c2)s1)n1ccnc1 (stereo not drawn) ; param system: Steroid 17-alpha-hydroxylase/17,20 lyase (Rattus norvegicus); output IC50: < 0.05 µM

Bench note, Steroid 17-alpha-hydroxylase/17,20 lyase (Rattus norvegicus): entry CCC(C(c1ccc2ncsc2c1)n1ccnc1)N(C)C (stereo not drawn) , its IC50 = < 5 µM

Hey, Steroid 17-alpha-hydroxylase/17,20 lyase (Rattus norvegicus) data for CC(C)C(c1ccc2cc(OCC(F)(F)F)ccc2n1)n1ccnn1 (stereo not drawn) : IC50 came out at 0.03 µM

Measured IC50 (Steroid 17-alpha-hydroxylase/17,20 lyase (Rattus norvegicus)), entry CC(O)(c1ccncc1)c1cnc(-c2ccc(F)cc2F)s1 (stereo not drawn) : < 0.05 µM

IC50 for Steroid 17-alpha-hydroxylase/17,20 lyase (Rattus norvegicus) with input CC(c1ccc(-c2ccc(O)cc2)cn1)n1ccnc1 (stereo not drawn) equals < 0.05 µM

Value sought: IC50, system Steroid 17-alpha-hydroxylase/17,20 lyase (Rattus norvegicus), item CC(O)(c1ccncc1)c1cnc(-c2ccc(S(C)(=O)=O)cc2)s1 (stereo not drawn) . Result: 0.05 to 0.2 µM

###

Hi, quick share: literature pIC50 data for Steroid 17-alpha-hydroxylase/17,20 lyase (Rattus norvegicus, UniProt P11715), several sources combined.
pIC50: −log10 of the molar value.

Given item CCC(c1ccc(-c2ccc(O)cc2)s1)n1ccnc1 (stereo not shown) , the value recorded as its pIC50 is > 7.30

pIC50 in this record for CCC(c1cnc(-c2ccc(F)cc2)s1)n1ccnc1 (stereo not shown) : > 7.30

Quick note, pIC50 for CC(O)(c1ccncc1)c1nnc(-c2ccc(F)cc2)s1 (stereo not shown) landed at > 7.30

Per the records, this compound ( CCC(c1ccc(-c2ccc(C(N)=O)cc2)cn1)n1ccnc1 (stereo not shown) ) has pIC50 equal to > 7.30

compound COc1cc2ccc(C(C(C)C)n3ccnn3)cc2cc1OC (stereo not shown) , pIC50 observed: 7.30

Reported pIC50 ( COc1ccc(-c2cccnc2C(C)n2ccnc2)cc1 (stereo not shown) ) = 6.70 to 7.30

Documented pIC50 of CC(O)(c1ccncc1)c1cc(-c2ccc(F)cc2)ns1 (stereo not shown) : > 7.30

# compound CCC(c1ccc(-c2cccc(O)c2)cn1)n1ccnc1 (stereo not shown) ; its pIC50 = > 7.30

Noted for CC(O)(c1ccncc1)c1cnc(-c2ccc(Cl)c(Cl)c2)s1 (stereo not shown) : its pIC50 reads > 7.30

Entry COc1cc2ccc(C(O)(c3ccncn3)C(C)C)cc2cc1OC (stereo not shown) ; pIC50 = 6.36

So for CC(O)(c1ccncc1)c1cnc(-c2ccc(F)cc2)cn1 (stereo not shown) , the logged pIC50 turned out to be > 7.30

Note to self: pIC50 recorded for CCC(c1cnc(-c2ccc(O)cc2)s1)n1ccnc1 (stereo not shown) was 6.70 to 7.30

Notebook: CC(O)(c1ccncc1)c1cnc(-c2ccc(F)nc2)s1 (stereo not shown) , pIC50 read as 5.00 to 6.70
